As shown below, each of these compounds has a reported MIC value.
- Tested on: Staphylococcus aureus
- RUN_DESCRIPTION: agar serial dilution test, minimum inhibitory concentration
- Format: cell-based
- ASSAY_CONTEXT: Staphylococcus aureus, ST AU strain 53-180

{"COMPOUND": "CC(=O)OCC1=C(C(=O)O)N2C(=O)[C@@H](NC(=O)CSC(=C[N+](=O)[O-])SCc3ccccc3)[C@H]2SC1 [Example 9]", "DATA_VALUE": "0.488 µg/mL"}
{"COMPOUND": "CC(=O)OCC1=C(C(=O)O)N2C(=O)[C@@H](NC(=O)CSC(=NS(C)(=O)=O)SCC#N)[C@H]2SC1 [Example 14]", "DATA_VALUE": "7.81 µg/mL"}
{"COMPOUND": "CC(=O)OCC1=C(C(=O)O)N2C(=O)[C@@H](NC(=O)CSC(SCC#N)=C(C#N)C#N)[C@H]2SC1 [Example 2]", "DATA_VALUE": "1.95 µg/mL"}

Now turn to the next compound.
Identify measured MIC associated with C#CCSC(=NC#N)SCC(=O)N[C@@H]1C(=O)N2C(C(=O)O)=C(COC(C)=O)CS[C@H]12 [Example 17]
3.9 µg/mL

Hello, the source for this data is patent US3956291A, in case you need it.
